Give measured pEC50 for each item. Keep answers brief.
target: CD73 (Homo sapiens (Human), UniProt P21589); test: MDA-MB-231 Cell Based CD73 Activity Assay (DMEM); conditions: MDA-MB-231-GFP cells, DMEM medium with 10% human plasma, 200 uM AMP
Sequence (P21589 27-574): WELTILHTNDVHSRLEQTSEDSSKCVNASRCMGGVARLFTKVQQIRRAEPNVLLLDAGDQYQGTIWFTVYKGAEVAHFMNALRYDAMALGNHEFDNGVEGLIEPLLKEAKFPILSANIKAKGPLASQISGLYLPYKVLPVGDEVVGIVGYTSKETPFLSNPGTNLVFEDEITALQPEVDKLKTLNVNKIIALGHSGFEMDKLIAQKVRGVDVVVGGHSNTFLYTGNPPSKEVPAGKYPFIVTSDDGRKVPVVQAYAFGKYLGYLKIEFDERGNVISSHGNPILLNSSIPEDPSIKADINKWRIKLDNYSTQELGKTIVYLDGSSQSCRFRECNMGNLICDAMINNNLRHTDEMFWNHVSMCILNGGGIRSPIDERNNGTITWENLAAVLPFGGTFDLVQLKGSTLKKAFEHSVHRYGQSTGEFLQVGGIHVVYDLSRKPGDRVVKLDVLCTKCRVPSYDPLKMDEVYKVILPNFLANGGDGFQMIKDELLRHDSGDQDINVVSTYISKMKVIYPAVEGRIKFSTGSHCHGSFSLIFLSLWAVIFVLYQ
Bear in mind: pEC50 is minus log10 of a mol/L concentration; give just that figure.

I have this compound here, O=C1N(CC(F)(F)F)c2cc([C@H]3C[C@@H]3c3cc(-c4c[nH]c(=O)[nH]c4=O)nn4c(Cl)cnc34)ccc2C12CC2 [Example 388] , and I need its recorded pEC50.
9.68

# input compound: N#Cc1ccc([C@H]2C[C@@H]2c2cc(-c3c[nH]c(=O)[nH]c3=O)nn3ccnc23)cc1F [Example 467] ; wanted: its pEC50
8.41

pEC50 lookup needed for O=c1[nH]cc(-c2cc(N3CC[C@@H](OC(F)(F)F)C3)c3nccn3n2)c(=O)[nH]1 [Example 187] , thanks.
7.90

Recorded pEC50 for O=c1[nH]cc(-c2cc([C@H]3C[C@@H]3c3ccc4cnc(CC(F)(F)F)n4c3)c3nccn3n2)c(=O)[nH]1 (racemic) [Example 605] , please?
9.92

Need pEC50, item COCCn1cc(-c2cc(-c3c[nH]c(=O)[nH]c3=O)nn3ccnc23)cn1 [Example 510]
6.42

Sample CC(C)C(=O)N1CCC12CCN(c1cc(-c3c[nH]c(=O)[nH]c3=O)nn3ccnc13)C2 (stereo not shown) [Example 657] — what was its pEC50?
6.64

Requested read-out: pEC50. Entry: O=c1[nH]cc(-c2cc(N3C[C@H](Oc4ccc(F)c(C(F)F)c4)C(F)(F)C3)c3nccn3n2)c(=O)[nH]1 [Example 745]
9.16

----------
biological target: UniProtKB P21589; assay: MDA-MB-231 Cell Based CD73 Activity Assay (DMEM); conditions: MDA-MB-231-GFP cells, DMEM medium with 10% human plasma, 200 uM AMP
Consider the following compounds; for each one, report its pEC50.
Please report pEC50 as the negative decimal logarithm of the molar concentration, giving only the number.

Item under review: O=c1[nH]cc(-c2cc([C@H]3C[C@@H]3c3cc(-c4ccc(F)cc4F)ccn3)c3nccn3n2)c(=O)[nH]1 (racemic) . Reported pEC50?
7.66

Which measured pEC50 value corresponds to CCNC(=O)OC1CN(c2cc(-c3c[nH]c(=O)[nH]c3=O)nn3ccnc23)CC1(F)F (stereo not shown) ?
8.95

Name the recorded pEC50 for N#Cc1cc(F)c([C@H]2C[C@@H]2c2cc(-c3c[nH]c(=O)[nH]c3=O)nn3ccnc23)c(F)c1 .
8.39

What does the record list as pEC50 for O=c1[nH]cc(-c2cc(C3CCOCC3)c3nccn3n2)c(=O)[nH]1 ?
6.03

----------
target: CD73 (Homo sapiens (Human), UniProt P21589); test: MDA-MB-231 Cell Based CD73 Activity Assay (DMEM); settings: MDA-MB-231-GFP cells, DMEM medium with 10% human plasma, 200 uM AMP
OBSERVED PROPERTY: log10 EC50 (log10 of the value in nM)
Lab note - EC50 converted to log10 from values in nM.

log10 EC50 for O=c1[nH]cc(-c2cc(N3CCC(C4CC4)C3)c3nccn3n2)c(=O)[nH]1 (centres unmarked) ?
1.91

Quick one: log10 EC50 for N#Cc1ccc([C@H]2C[C@@H]2c2cc(-c3c[nH]c(=O)[nH]c3=O)nn3c(F)cnc23)cc1F ?
0.59

Which log10 EC50 is reported for this compound? COC1(C(F)(F)F)CCN(c2cc(-c3c[nH]c(=O)[nH]c3=O)nn3ccnc23)C1 (centres unmarked)
1.69

# input compound: O=c1[nH]cc(-c2cc(N3C[C@H](Oc4cc(C(F)(F)F)ccn4)C(F)(F)C3)c3nccn3n2)c(=O)[nH]1 ; wanted: its log10 EC50
-0.29

Which log10 EC50 value is on record for COC[C@@H](C)NC(=O)O[C@H]1CN(c2cc(-c3c[nH]c(=O)[nH]c3=O)nn3ccnc23)CC1(F)F ?
-0.89

I am curious: what log10 EC50 value has been reported for O=c1[nH]cc(-c2cc([C@H]3C[C@@H]3c3ccc4cnn(CC(F)(F)F)c4n3)c3ncc(F)n3n2)c(=O)[nH]1 (racemic) [Example 602] ?
-0.28

For the compound shown here, CC(C)NC(=O)CC1CN(c2cc(-c3c[nH]c(=O)[nH]c3=O)nn3ccnc23)CC1(F)F (centres unmarked) , give the reported log10 EC50.
1.58

Given O=c1[nH]cc(-c2cc(N3CC(F)(F)C4(CN(CC(F)(F)F)C4)C3)c3nccn3n2)c(=O)[nH]1 , state its recorded log10 EC50.
1.46

Tell me the measured log10 EC50 of O=C(Nc1c(F)cc(F)cc1F)O[C@H]1CN(c2cc(-c3c[nH]c(=O)[nH]c3=O)nn3ccnc23)CC1(F)F , please.
0.07

Please report the recorded log10 EC50 for O=c1[nH]cc(-c2cc(N3CC(F)(F)C4(CC4)C3)n3ncc(Cl)c3n2)c(=O)[nH]1 .
2.66

What value of log10 EC50 has been recorded for this entry: O=c1[nH]cc(-c2cc(N3CC(Oc4ccc(C(F)(F)F)cn4)C(F)(F)C3)c3nccn3n2)c(=O)[nH]1 (centres unmarked)
0.60

Consider the compound shown here: O=c1[nH]cc(-c2cc([C@H]3C[C@@H]3c3ccc4c(Cl)nn(CC(F)(F)F)c4c3)c3nccn3n2)c(=O)[nH]1 What is its recorded log10 EC50?
-0.42

What value of log10 EC50 has been recorded for this entry: O=C1N(CC(F)(F)F)c2cc([C@H]3C[C@@H]3c3cc(-c4c[nH]c(=O)[nH]c4=O)nn4c(F)cnc34)ccc2C12CCCC2
-0.60
